Test: NCI Yeast Anticancer Drug Screen. Data for the cln2 rad14 strain (AID 165);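 also: 0% = growth equal to vehicle treated cultures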
Conditions: S. cerevisiae cln2 rad14 strain, at 50.0 µM, hits give high values
This is part of a sample that, as a whole, favours compounds with a hit. Of some 79,000 tested, about 15% had one in any assay. Active and inactive are the calls of the source. Rule as the data show it: active = growth inhibition above about 70%; inactive = the rest.
Listed compounds paired with reported growth inhibition
MEASURE NAME: growth inhibition

- COMPOUND: "CCCCCCC1(/C=C\\c2ccccc2Cl)OCCO1"
  EXPERIMENTAL VALUE: "-9.6% (inactive)"
- COMPOUND: "ClC1CC/C=C\\CC/C=C/CCC1Cl (centres undefined)"
  EXPERIMENTAL VALUE: "32% (inactive)"
- COMPOUND: "O=C1CCC2=NCc3c(ccc4ccccc34)N12"
  EXPERIMENTAL VALUE: "-42.9% (inactive)"
- COMPOUND: "C=CCC(C(=O)O)c1ccccc1 (centres undefined)"
  EXPERIMENTAL VALUE: "-29.9% (inactive)"
- COMPOUND: "CCCCCCCCCCCCCCCCCN(C)C(=O)OCC"
  EXPERIMENTAL VALUE: "-114% (inactive)"
- COMPOUND: "Cc1ccc(-c2nc(-c3nccc4ccccc34)oc2-c2ccccc2)cc1"
  EXPERIMENTAL VALUE: "-28.4% (inactive)"
- COMPOUND: "CC(=O)C1CN(C)CCC1=O (centres undefined)"
  EXPERIMENTAL VALUE: "-11.2% (inactive)"
- COMPOUND: "O=C(OCOC(=O)c1ccccc1)c1ccccc1"
  EXPERIMENTAL VALUE: "-18.5% (inactive)"
- COMPOUND: "CC(C)Cc1ncnc2n[nH]nc12"
  EXPERIMENTAL VALUE: "35.4% (inactive)"

Values from PubChem BioAssay (NCI)
